biological target: human GPR40 (Homo sapiens, UniProt O14842); test: Induction of Ca2+ (calcium flux assay) using human GPR40 expression cell line; conditions: read-out: EC0.5
Sequence (O14842 whole entry): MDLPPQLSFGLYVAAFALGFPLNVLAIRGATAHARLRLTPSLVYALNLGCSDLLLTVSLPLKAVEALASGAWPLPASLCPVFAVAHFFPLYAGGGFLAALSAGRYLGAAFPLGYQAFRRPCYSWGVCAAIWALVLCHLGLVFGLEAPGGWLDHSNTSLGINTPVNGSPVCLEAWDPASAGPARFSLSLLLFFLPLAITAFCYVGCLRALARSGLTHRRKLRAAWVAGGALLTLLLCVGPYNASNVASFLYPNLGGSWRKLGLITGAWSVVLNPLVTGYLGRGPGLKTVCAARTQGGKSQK
Response field label: string, one of 1 (EC50 strictly below 10 nM) or 0.

COMPOUND: CC#C[C@@H](CC(=O)O)c1ccc(OCc2ccc3c(C)nn(CC(C)C)c3c2C)cc1
TEST_TARGET: human GPR40 (Homo sapiens, UniProt O14842)
LABEL: 1
--
COMPOUND: O=C(O)CC1CCc2cc(OCc3ccc4cnn(Cc5ccccc5)c4c3)ccc21 (stereo not drawn)
TEST_TARGET: human GPR40 (Homo sapiens, UniProt O14842)
LABEL: 0
--
COMPOUND: CC(C)n1cc2ccc(COc3ccc([C@H](CC(=O)O)c4ccon4)cc3)cc2n1
TEST_TARGET: human GPR40 (Homo sapiens, UniProt O14842)
LABEL: 0
--
COMPOUND: O=C(O)C[C@@H](c1ccc(OCc2ccc3ccn(Cc4ccc(F)cc4)c3n2)cc1)c1ccon1
TEST_TARGET: human GPR40 (Homo sapiens, UniProt O14842)
LABEL: 0
--
COMPOUND: CC#C[C@@H](CC(=O)O)c1ccc(OCc2ccc(C)c3c2cnn3C(C)C)cc1
TEST_TARGET: human GPR40 (Homo sapiens, UniProt O14842)
LABEL: 0

Please look at the following compound next.
**Query** Hi there! Is EC50 for `CC#C[C@@H](CC(=O)O)c1ccc(OCc2ccc3ccn(Cc4c(C)cccc4C)c3c2C)cc1` below 10 nM, do you know?
**Result** 0

----------
# pEC50 per record follows
molecular target: human GPR40 (Homo sapiens, UniProt O14842); assay: Induction of Ca2+ (calcium flux assay) using human GPR40 expression cell line; conditions: read-out: EC0.5
pEC50: −log10 of the molar value.

The examples below pair each entry with its known result.
COMPOUND: CC#C[C@@H](CC(=O)O)c1ccc(OCc2ccc3c(cnn3CCOCC)c2)cc1
VALUE_KIND: pEC50
RESULT: 7.30 to 9.00

COMPOUND: CC#C[C@@H](CC(=O)O)c1ccc(OCc2ccc3cnn(Cc4ccc(C)nc4)c3c2)cc1
VALUE_KIND: pEC50
RESULT: 6.30 to 7.30

COMPOUND: Cc1c(COc2ccc(CCC(=O)O)c(F)c2)ccc2ccn(Cc3ccccc3)c12
VALUE_KIND: pEC50
RESULT: 7.30 to 9.00

Quick note, pEC50 for `CC#C[C@@H](CC(=O)O)c1ccc(OCc2ccc3cnn(CC(C)C)c3c2)cc1` landed at 7.30 to 9.00

The compound listed as `O=C(O)CCc1ccc(OCc2ccc3ccn(CC4CCCCC4)c3c2)cc1` shows pEC50 equal to 6.40

# compound `CC#C[C@@H](CC(=O)O)c1ccc(OCc2ccc3ccn(Cc4ccc(F)cc4F)c3c2C)cc1` ; its pEC50 = 6.30 to 7.30

Record N#CC(CC(=O)O)c1ccc(OCc2ccc3c(cnn3Cc3ccccc3)c2)cc1 (centres unmarked) , field pEC50: 7.70

Form: compound = O=C(O)CC1COc2cc(OCc3ccc4c(Cl)cn(Cc5ccccc5)c4c3)ccc21 (centres unmarked) ; pEC50 = 6.80

----------
molecular target: human GPR40 (Homo sapiens, UniProt O14842); experiment: Induction of Ca2+ (calcium flux assay) using human GPR40 expression cell line; details: read-out: EC0.5
Item-by-item account of EC50
Return type: number; implicit unit nM.

The compound CC#C[C@@H](CC(=O)O)c1ccc(OCc2ccnc3c2c(F)cn3CC(C)C)cc1 [Example 225] on human GPR40 (Homo sapiens, UniProt O14842): EC50 was 13

human GPR40 (Homo sapiens, UniProt O14842) data for CC#C[C@@H](CC(=O)O)c1ccc(OCc2ccc3cn(Cc4ccc(F)cc4)nc3c2)cc1 [Example 67] ; its EC50: 70
